Where these numbers come from: patent US10857105B2

System: modified luciferase
ASSAY INFO: Luciferase expression in liver, lung, spleen and femur 6 hours after intravenous administration to mice
Assay type: in vivo
CONDITION INFO: liver, 6 hours after intravenous 0.5 mpk, mice
Method: The efficacy of the nanoparticle compositions presented in Table 1A was further evaluated by measuring the expression of modified luciferase in the liver, lung, spleen, and femur upon administration of a given composition. Formulations were administered intravenously to mice (n=3) at a dosage of 0.5 mpk and bioluminescence measured after 6 hours. The standard MC3 formulation and a PBS control were also tested. […]
RECORDED ENDPOINT: Total Flux, Liver

Can you look up Total Flux, Liver on modified luciferase for CCCCCCCCC(CCCCCCCC)OC(=O)CCCCCCCN(CCO)CCCCCC(=O)OC1CCC(CCCCC)CC1 (stereo not shown) ?
8.42E+09

Fill in the recorded Total Flux, Liver for this compound, with modified luciferase as test system: CCCCCCCCCOC(=O)CCCCCCCN(CCCCCCCC(=O)OC(CCCCCCCC)CCCCCCCC)CCOCCO
3.62E+08

Give modified luciferase Total Flux, Liver for CCCCCCCCCCCCCCN(CCO)CCCCCCCC(=O)OC(CCCCCCCC)CCCCCCCC
4.87E+09

# value lookup — system modified luciferase, readout Total Flux, Liver, item CCCCCCCCCOC(=O)CCCCCCCN(CCO)CCCCCCCC(=O)OC1CCC(C2CCCCC2)CC1 (stereo not shown)
1.09E+07

====

ASSAY INFO: Encapsulation efficiency of RNA in nanoparticle compositions (RIBOGREEN assay)
Format: physicochemical
CONDITION INFO: Table 1A; lipid:DSPC:cholesterol:PEG-DMG 50:10:38.5:1.5 mol %
# strict inequality: EE < 90% yields 1, everything else yields -1

Does the reported EE of CCCCCCCCCOC(=O)CCCCCCCN(CCCCCCCC(=O)OC(CCCCCCCC)CCCCCCCC)CCCn1cc(CO)nn1 [Compound 218] stay below 90%?
-1

Does this compound meet the criterion EE < 90%? CCCCCCCCOP(=O)(OCCCCCCCC)OCCCCCCCN(CCO)CCCCCCCC(=O)OC(C)CCCCCCCC (centres unmarked) [Compound 132]
1

In the record for CCCCCCCCC(CCCCCCCC)OC(=O)CCCCCCCN(CCO)CCCCCCCC(=O)OC(CCCCCCCC)CCCCCCCC [compound 29] , is EE less than 90%?
-1

====

System: luciferase (Luc) mRNA
ASSAY INFO: Luciferase expression after intramuscular administration to mice
Format: in vivo
CONDITION INFO: Luc mRNA, intramuscular, 0.01 mpk, 6 hours
Method: The numbers 1-7 in this figure correspond to MC3, Compounds 168-170, and 173-175 respectively. FIGS. 18A and 18B show the results of luciferase expression measured upon intramuscular administration of various nanoparticle compositions to CD-1 mice at 0.01 mpk. […] The total flux (measured by area under the curve, AUC) induced by administration of a formulation including a given lipid relative to that induced by administration of a formulation including MC3 was also measured for several lipids. […]
RECORDED ENDPOINT: Total flux 6 hours after intramuscular administration, 0.01 mpk Dose (p/s)
Record the value in p/s, omitting the unit from your answer.

I am curious: what Total flux 6 hours after intramuscular administration, 0.01 mpk Dose value has been reported for CCCCCCCCCOC(=O)CCCCCCCN(CCCCCCCC(=O)OC(CCCCCCCC)CCCCCCCC)CCCNC(=O)N(C)C ?
1.21E+08

Need Total flux 6 hours after intramuscular administration, 0.01 mpk Dose, item CCCCCCCCCOC(=O)CCCCCCCN(CCCCCCCC(=O)OC(CCCCCCCC)CCCCCCCC)CCCn1ccc(=O)[nH]c1=O
3.31E+06

Given CCCCCCCCCOC(=O)CCCCCCCN(CCCCCCCC(=O)OC(CCCCCCCC)CCCCCCCC)CCCNS(C)(=O)=O , state its recorded Total flux 6 hours after intramuscular administration, 0.01 mpk Dose.
1.18E+08

Look up Total flux 6 hours after intramuscular administration, 0.01 mpk Dose for this compound: CCCCCCCCCOC(=O)CCCCCCCN(CCCCCCCC(=O)OC(CCCCCCCC)CCCCCCCC)CCCNC(=S)N(C)C
1.58E+08

If you can, please state the reported Total flux 6 hours after intramuscular administration, 0.01 mpk Dose value of CCCCCCCCC(C)OC(=O)CCCCCN(CCO)CCCCCCCC(=O)OC(CCCCCCCC)CCCCCCCC (stereo not shown) .
9.19E+07

Any idea what Total flux 6 hours after intramuscular administration, 0.01 mpk Dose was measured for CCCCCCCCCOC(=O)CCCCCCCN(CCCCCCCC(=O)OC(CCCCCCCC)CCCCCCCC)CCCNC(=O)NC ?
9.47E+07

Quick one: Total flux 6 hours after intramuscular administration, 0.01 mpk Dose for CCCCCCCCCOC(=O)CCCCCCCN(CCCCCCCC(=O)OC(CCCCCCCC)CCCCCCCC)CC(O)CO (stereo not shown) ?
8.83E+06

====

ASSAY INFO: Encapsulation efficiency of RNA in nanoparticle compositions (RIBOGREEN assay)
Format: physicochemical
CONDITION INFO: Table 1A; lipid:DSPC:cholesterol:PEG-DMG 50:10:38.5:1.5 mol %
Text: For nanoparticle compositions including an RNA, a QUANT-IT™ RIBOGREEN® RNA assay (Invitrogen Corporation Carlsbad, Calif.) can be used to evaluate the encapsulation of an RNA by the nanoparticle composition. […] The fluorescence intensity can be measured using a fluorescence plate reader (Wallac Victor 1420 Multilabel Counter; Perkin Elmer, Waltham, Mass.) at an excitation wavelength of, for example, about 480 nm and an emission wavelength of, for example, about 520 nm. […]
RECORDED ENDPOINT: EE (%)
The reply should be a number in %, with the unit left off.

Consider the molecule CCCCCCCCC(CCCCCCCC)OC(=O)CCCCCCCN(CCO)CCCCCCCC(=O)OCC(C)CCCCCCC (stereo not shown) and give its measured EE.
94.2

Suppose we examine the molecule CCCCCCCCCOC(=O)CCCCCCCN(CCO)CCCCCCCC(=O)OC(CCCC)CCCC ; what EE value has been reported?
94.33

Requested field: EE. Item: CCCCCCCCCOC(=O)CCCCCCCN(CCCCCCCC(=O)OC(CCCCCCCC)CCCCCCCC)CCCOC(=O)NC
94.8

I have this molecule here, CCCCCCCCC(CCCCCCCC)OC(=O)CCCCCCCN(CCO)CCCCCCCC(=O)OC(C)(C)C , and I need its recorded EE.
37.36

# EE lookup, item CCCCCCCCC(CCCCCCCC)OC(=O)CCCCCCCN(CCO)CCCCCCCC(=O)O[C@H](C)CCCCCCCC
95.4

If you can, please state the reported EE value of CCCCCCCCC(CCCCCCCC)OC(=O)CCCCCCCN(CCO)CCCCCCCC(=O)N(C)CCCCCCCC .
89.15

Requested field: EE. Item: CCCCCCCCCOC(=O)CCCCCCCN(CCCCCCCC(=O)OC(CCCCCCCC)CCCCCCCC)CCOC
92.47

====

What Size was measured for each of the following?
ASSAY INFO: Particle size and polydispersity index of nanoparticle compositions (Zetasizer Nano ZS)
Assay type: physicochemical
CONDITION INFO: Table 1D; compositions for subcutaneous administration; # formulated with hEPO mRNA
Express the result in nm but write the number alone.

Sample CCCCCCCCCOC(=O)CCCCCCCN(CCCCCCCC(=O)OC(CCCCCCCC)CCCCCCCC)CCCNC(=S)N(C)C [Compound 111] — what was its Size?
94.5

Recorded Size for CCCCCCCCCOC(=O)CCCCCCCN(CCCCCCCC(=O)OC(CCCCCCCC)CCCCCCCC)CCCN/C(=N/S(C)(=O)=O)N(C)C [Compound 233] , please?
87.0

For the compound CCCCCCCCCC(=O)OC(C)CCCCCCN(CCO)CCCCCCCOC(=O)C(CCCCCCCC)CCCCCCCC (stereo not shown) [Compound 165] , what Size is on record?
74.3

// lookup Size for CCCCCCCCCOC(=O)C(C)CCCCCCN(CCO)CCCCCCCOC(=O)C(CCCCCCCC)CCCCCCCC (stereo not shown) [Compound 163]
78.0

Item under review: CCCCCCCCCOC(=O)CCCCCCCN(CCO)CCCCCCCC(=O)OC(CCCCCCCC)CCCCCCCC [Compound 18] . Reported Size?
75.0

Record request: Size value, item CCCC/C=C\CCC(CC/C=C\CCCC)OC(=O)CCCCCCCN(CCO)CCCCCCCC(=O)OCCCCCCCCC [Compound 60]
87.4

Quick check: Size of CCCCCCCCC(C)OC(=O)CCCCCCCN(CCO)CCCCCCCC(=O)OC(CCCCCCCC)CCCCCCCC (stereo not shown) [Compound 48] ?
79.8

====

System: luciferase (Luc) mRNA
ASSAY INFO: Luciferase expression (whole body bioluminescence) after intravenous administration to mice
Type: in vivo
CONDITION INFO: i.v. administration (Table 3C)
Record form. Attribute: AUC. Fill in for each entry.
Report the value in h*p/s with no unit label.

Requested read-out: AUC. Entry: CCCCCCCCCOC(=O)CCCCCCCN(CCCCCCCC(=O)OC(CCCCCCCC)CCCCCCCC)CCN1CCOCC1 [Compound 103]
2.4E+10

State the recorded AUC for this entry: CCCCCCCCC(CCCCCCCC)OC(=O)CCCCCCCN(CCO)CCCCCCCC(=O)N(C)CCCCCCCC [Compound 145]
8.1E+10

For the molecule shown here, CCCCCCCCCOC(=O)CCCCCCCN(CCCCCCCC(=O)OC(CCCCCCCC)CCCCCCCC)CCN1CCN(C)CC1 [Compound 101] , give the reported AUC.
1.8E+09

I am curious: what AUC value has been reported for CCCCCCCCCOC(=O)CCCCCCCN(CCO)CCCCCCCCCC(=O)OC(CCCCCC)CCCCCC [Compound 147] ?
5.63E+11

Consider the molecule CCCCCCCCCOC(=O)CCCCCCCN(CCO)CCCCCCCCCOC(=O)C(CCCCCC)CCCCCCCC (centres unmarked) [Compound 134] and give its measured AUC.
3.43E+11
